Provenance of the data: patent US4138589A

experiment: Water solubility; assay type: physicochemical; conditions: water; sodium salt; temperature not stated; read-out: water solubility
property name: solubility

INSERT INTO assay_data (smiles_notation, assay_result) VALUES
  ('Nc1c(I)c(C(=O)O)c(I)c(C(=O)NC(CO)(CO)CO)c1I', '~800 mg/mL');

----------
assay: Water solubility; format: physicochemical; conditions: water; temperature not stated; read-out: solubility
Counter-ions that a name gives are not always drawn.
property name: solubility

INSERT INTO results (compound, property_name, assay_result) VALUES
  ('CC(CO)(CO)NC(=O)c1c(I)c(N)c(I)c(C(=O)O)c1I [sodium salt of Example 9]', 'solubility', '~930 mg/mL'),
  ('CC(=O)Nc1c(I)c(C(=O)O)c(I)c(C(=O)NC(CO)(CO)CO)c1I', 'solubility', '> 600 mg/mL'),
  ('CC(=O)Nc1c(I)c(C(=O)O)c(I)c(C(=O)NC(C)(CO)CO)c1I [Example 11, Sodium Salt]', 'solubility', '~820 mg/mL'),
  ('CC(=O)Nc1c(I)c(C(=O)O)c(I)c(C(=O)NC(C)(COC(C)=O)COC(C)=O)c1I', 'solubility', '> 1000 mg/mL');

----------
tested on: mice; assay: Intracerebral Toxicity in Mice; format: in vivo, Swiss Albino mice (Charles River); settings: meglumine salt solution, seven day observation
We begin with a simple list: items and their reported LD50 Intracerebral (Mice).
property name: LD50 Intracerebral (Mice)

INSERT INTO measurements (molecule, assay_result) VALUES
  ('CNC(=O)c1c(I)c(NC(C)=O)c(I)c(C(=O)O)c1I [Iothalamic Acid, reference compound]', '280 mg. contained iodine/kg. anima'),
  ('COCC(=O)Nc1c(I)c(C(=O)O)c(I)c(C(=O)NC(CO)(CO)CO)c1I', '~650 mg. contained iodine/kg. anima'),
  ('CC(=O)Nc1c(I)c(C(=O)O)c(I)c(C(=O)NC(C)(CO)CO)c1I', '790 mg. contained iodine/kg. anima'),
  ('CC(=O)Nc1c(I)c(C(=O)O)c(I)c(C(=O)NCCO)c1I [reference compound]', '174 mg. contained iodine/kg. anima');

----------
tested on: rats; experiment: Intracisternal Toxicity in Rats; format: in vivo, Sprague Dawley (Carworth) rats; details: meglumine salt solution, two day observation
property name: LD50 Intracisternal (Rats)

INSERT INTO assay_data (molecule, property_name, assay_result) VALUES
  ('CNC(=O)c1c(I)c(NC(C)=O)c(I)c(C(=O)O)c1I [Iothalamic Acid, reference compound]', 'LD50 Intracisternal (Rats)', '86 mg. contained iodine/kg. anima'),
  ('CC(=O)Nc1c(I)c(C(=O)O)c(I)c(C(=O)NC(C)(CO)CO)c1I', 'LD50 Intracisternal (Rats)', '242 mg. contained iodine/kg. anima'),
  ('CC(=O)Nc1c(I)c(C(=O)O)c(I)c(C(=O)NC(CO)(CO)CO)c1I', 'LD50 Intracisternal (Rats)', '151 mg. contained iodine/kg. anima'),
  ('CC(=O)Nc1c(I)c(C(=O)O)c(I)c(C(=O)NCCO)c1I [reference compound]', 'LD50 Intracisternal (Rats)', '49 mg. contained iodine/kg. anima'),
  ('COCC(=O)Nc1c(I)c(C(=O)O)c(I)c(C(=O)NC(CO)(CO)CO)c1I', 'LD50 Intracisternal (Rats)', '~150 mg. contained iodine/kg. anima');
